Molecular target: GDP-loaded KRAS G12D (Homo sapiens, UniProt P01116, G12D)
Sequence (P01116 1-188 isoform P01116-2 G12D): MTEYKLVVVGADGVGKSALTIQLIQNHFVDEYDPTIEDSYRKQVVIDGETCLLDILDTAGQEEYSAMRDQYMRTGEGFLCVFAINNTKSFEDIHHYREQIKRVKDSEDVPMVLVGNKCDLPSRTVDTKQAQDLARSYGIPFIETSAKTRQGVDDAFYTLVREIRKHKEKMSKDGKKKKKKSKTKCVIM
Assay: KRAS G12D (GDP) biochemical assay, TR-FRET probe displacement
Assay type: binding
Conditions: 0.5 nM enzyme, 30 min pre-incubation, 2 h incubation, TR-FRET ratio; read-out: G12D IC50

- compound_string: "C#Cc1c(F)ccc2cccc(-c3nc4c5c(nc(OC[C@@]67CCCN6C[C@H](F)C7)nc5c3F)N3C[C@H]5CC[C@@H]([C@H]3CCC4)N5Cc3oc(=O)oc3C)c12"
  measured_on: "GDP-loaded KRAS G12D (Homo sapiens, UniProt P01116, G12D)"
  IC50 [nM]: 2.5
- compound_string: "C#Cc1c(F)ccc2cc(O)cc(-c3nc4c5c(nc(OC[C@@]67CCCN6C[C@H](F)C7)nc5c3F)N3C[C@H]5CC[C@@H]([C@H]3CC[C@H]4C)N5Cc3oc(=O)oc3CCCCCCCC)c12"
  measured_on: "GDP-loaded KRAS G12D (Homo sapiens, UniProt P01116, G12D)"
  IC50 [nM]: 24
- compound_string: "C#Cc1c(F)ccc2cc(O)cc(-c3nc4c5c(nc(OC[C@]6(C)CN(C)CC[C@@H]6C(F)F)nc5c3F)N3C[C@H]5CC[C@H](N5)[C@H]3CCC4)c12"
  measured_on: "GDP-loaded KRAS G12D (Homo sapiens, UniProt P01116, G12D)"
  IC50 [nM]: 0.03

###

In this section, each of the molecules is paired with its reported Mouse Parent AUC.
Assay: Mouse oral cassette pharmacokinetics
Type: in vivo, male CD-1 mice
Settings: male, CD-1, mouse, in vivo, po, 30 mg/kg

- molecule: "C#Cc1c(F)ccc2cc(O)cc(-c3nc4c5c(nc(OC[C@@]67CCCN6C[C@H](F)C7)nc5c3F)N3C[C@H]5CC[C@@H]([C@H]3CC[C@H]4C)N5Cc3oc(=O)oc3CCCCCCCC)c12"
  unit: "nM·h"
  Mouse Parent AUC: 420
- molecule: "C#Cc1c(F)ccc2cccc(-c3nc4c5c(nc(OC[C@@]67CCCN6C[C@H](F)C7)nc5c3F)N3C[C@H]5CC[C@@H]([C@H]3CCC4)N5Cc3oc(=O)oc3C)c12"
  unit: "nM·h"
  Mouse Parent AUC: 3600
- molecule: "Cc1cc(N)nc(-c2c(Cl)c3c4c(nc(OC[C@@]56CCCN5C[C@H](F)C6)nc4c2F)N2C[C@H]4CC[C@@H]([C@H]2CC3)N4Cc2oc(=O)oc2C)c1C(F)(F)F (atropisomer, axis not shown; (aR))"
  unit: "nM·h"
  Mouse Parent AUC: 5700
- molecule: "C#Cc1c(F)ccc2cc(O)cc(-c3nc4c5c(nc(OC[C@@]67CCCN6C[C@H](F)C7)nc5c3F)N3C[C@H]5CC[C@H](N5)[C@@H]3[C@@H](C)C4)c12 [Comp. Ex. 64, reference compound]"
  unit: "nM·h"
  Mouse Parent AUC: 830
- molecule: "C#Cc1c(F)ccc2cc(O)cc(-c3nc4c5c(nc(OC[C@@]67CCCN6C[C@H](F)C7)nc5c3F)N3C[C@H]5CC[C@H](N5)[C@H]3CCC4)c12 [Comp. Ex. 75, reference compound]"
  unit: "nM·h"
  Mouse Parent AUC: 51
- molecule: "C#Cc1c(F)ccc2cc(O)cc(-c3nc4c5c(nc(OC[C@@]67CCCN6C[C@H](F)C7)nc5c3F)N3C[C@H]5CC[C@@H]([C@H]3CC[C@H]4C)N5Cc3oc(=O)oc3C)c12"
  unit: "nM·h"
  Mouse Parent AUC: 960
- molecule: "C#Cc1c(F)ccc2cc(O)cc(-c3nc4c5c(nc(OC[C@@]67CCCN6C[C@H](F)C7)nc5c3F)N3C[C@H]5CC[C@@H]([C@H]3CCC4)N5Cc3oc(=O)oc3CCCCCCCC)c12"
  unit: "nM·h"
  Mouse Parent AUC: 440
- molecule: "C#Cc1c(F)ccc2cc(O)cc(-c3nc4c5c(nc(OC[C@@]67CCCN6C[C@H](F)C7)nc5c3F)N3C[C@H]5CC[C@@H]([C@H]3CCC4)N5Cc3oc(=O)oc3C3CCCCC3)c12"
  unit: "nM·h"
  Mouse Parent AUC: 250
- molecule: "C#Cc1c(F)ccc2cc(O)cc(-c3nc4c5c(nc(OC[C@@]67CCCN6C[C@H](F)C7)nc5c3F)N3C[C@H]5CC[C@@H]([C@H]3CC[C@H]4C)N5Cc3oc(=O)oc3C(C)(C)C)c12"
  unit: "nM·h"
  Mouse Parent AUC: 200

###

In this section, each of the compounds is paired with its reported Rat Parent % F.
Assay: Rat oral pharmacokinetics
Set-up: species or system Male Sprague Dawley rats
Conditions: male, Sprague Dawley, in vivo, 7.5 mg/kg

- compound: "C#Cc1c(F)ccc2cc(N)nc(-c3c(F)c4c5c(nc(OC[C@@]67CCCN6C[C@H](F)C7)nc5c3F)N3C[C@H]5CC[C@@H]([C@H]3CCC4)N5Cc3oc(=O)oc3C)c12 (atropisomer, axis not shown; (aR)) [Example 73]"
  Rat Parent % F: "2%"
- compound: "C#Cc1c(F)ccc2cc(N)cc(-c3nc4c5c(nc(OC[C@@]67CCCN6C[C@H](F)C7)nc5c3F)N3C[C@H]5CC[C@@H]([C@H]3CCC4)N5Cc3oc(=O)oc3C(C)(C)C)c12 [Example 81]"
  Rat Parent % F: "0.4%"
- compound: "C#Cc1c(F)ccc2cc(N)cc(-c3nc4c5c(nc(OC[C@@]67CCCN6C[C@H](F)C7)nc5c3F)N3C[C@H]5CC[C@@H]([C@H]3CCC4)N5Cc3oc(=O)oc3C(C)C)c12 [Example 80]"
  Rat Parent % F: "2.1%"

###

Test: Rat oral pharmacokinetics
Parameters: species or system Male Sprague Dawley rats
Details: male, Sprague Dawley, in vivo, 7.5 mg/kg
In this section, each of the compounds is paired with its reported Rat Parent AUC.
readout_name: Rat Parent AUC

- compound: "C#Cc1c(F)ccc2cc(N)nc(-c3c(F)c4c5c(nc(OC[C@@]67CCCN6C[C@H](F)C7)nc5c3F)N3C[C@H]5CC[C@@H]([C@H]3CCC4)N5Cc3oc(=O)oc3CC)c12 (atropisomer, axis not shown; (aR)) [Example 79]"
  observed_value: "0.22 µM·h"
- compound: "C#Cc1c(F)ccc2cc(N)cc(-c3nc4c5c(nc(OC[C@@]67CCCN6C[C@H](F)C7)nc5c3F)N3C[C@H]5CC[C@@H]([C@H]3CCC4)N5Cc3oc(=O)oc3C(C)(C)C)c12 [Example 81]"
  observed_value: "0.011 µM·h"
- compound: "C#Cc1c(F)ccc2cc(N)cc(-c3nc4c5c(nc(OC[C@@]67CCCN6C[C@H](F)C7)nc5c3F)N3C[C@H]5CC[C@@H]([C@H]3CCC4)N5Cc3oc(=O)oc3C(C)C)c12 [Example 80]"
  observed_value: "0.057 µM·h"
- compound: "C#Cc1c(F)ccc2cc(O)cc(-c3nc4c5c(nc(OC[C@@]67CCCN6C[C@H](F)C7)nc5c3F)N3C[C@H]5CC[C@@H]([C@@H]3[C@H]3CCC[C@@H]43)N5Cc3oc(=O)oc3C)c12 [Example 42]"
  observed_value: "0.2 µM·h"
- compound: "C#Cc1c(F)ccc2cc(N)cc(-c3nc4c5c(nc(OC[C@@]67CCCN6C[C@H](F)C7)nc5c3F)N3C[C@H]5CC[C@@H]([C@H]3CCC4)N5Cc3oc(=O)oc3CCCCCC)c12 [Example 36]"
  observed_value: "0.052 µM·h"

###

Molecular target: GDP-loaded KRAS G12D (Homo sapiens, UniProt P01116, G12D)
Assay: KRAS G12D (GDP) biochemical assay, TR-FRET probe displacement
Type: binding
Settings: 0.5 nM enzyme, 30 min pre-incubation, 2 h incubation, TR-FRET ratio; read-out: G12D IC50
Each record gets a class by IC50: lower: < 3 nM; middle: ≥ 3 nM and < 7 nM; upper: ≥ 7 nM

- compound: "C#Cc1c(F)ccc2cc(O)cc(-c3nc4c5c(nc(OC[C@@]67CCCN6C[C@H](F)C7)nc5c3F)N3C[C@H]5CC[C@@H]([C@H]3CCC4)N5Cc3oc(=O)oc3C3CCCCC3)c12 [Example 15]"
  category_label: "upper"
- compound: "C#Cc1c(F)ccc2cc(O)cc(-c3nc4c5c(nc(OC[C@@]67CCCN6C[C@H](F)C7)nc5c3F)N3C[C@H]5CC[C@@H]([C@@H]3[C@@H](C)C4)N5Cc3oc(=O)oc3C)c12 [Example 7]"
  category_label: "lower"
- compound: "C#Cc1c(F)ccc2cc(O)cc(-c3nc4c5c(nc(OC[C@@]67CCCN6C[C@H](F)C7)nc5c3F)N3C[C@H]5CC[C@@H]([C@H]3CCC4)N5Cc3oc(=O)oc3C)c12 [Example 8]"
  category_label: "middle"
- compound: "C#Cc1c(F)ccc2cc(N)cc(-c3nc4c5c(nc(OC[C@]6(C)CN(C)CC[C@@H]6C(F)F)nc5c3F)N3C[C@H]5CC[C@H](N5)[C@H]3CCC4)c12 [Example 76-P]"
  category_label: "lower"
- compound: "C#Cc1c(F)ccc2cccc(-c3nc4c5c(nc(OC[C@@]67CCCN6C[C@H](F)C7)nc5c3F)N3C[C@H]5CC[C@@H]([C@H]3CCC4)N5Cc3oc(=O)oc3C(C)(C)C)c12 [Example 6]"
  category_label: "upper"
- compound: "C#Cc1c(F)ccc2cc(O)cc(-c3nc4c5c(nc(OC[C@@]67CCCN6C[C@H](F)C7)nc5c3F)N3C[C@H]5CC[C@@H]([C@H]3CCC4)N5Cc3oc(=O)oc3CCCCCC)c12 [Example 14]"
  category_label: "upper"
- compound: "C#Cc1c(F)ccc2cc(O)cc(-c3nc4c5c(nc(OC[C@@]67CCCN6C[C@H](F)C7)nc5c3F)N3C[C@H]5CC[C@@H]([C@H]3CC[C@H]4C)N5Cc3oc(=O)oc3C)c12 [Example 11]"
  category_label: "middle"
- compound: "C#Cc1c(F)ccc2cc(O)cc(-c3nc4c5c(nc(OC[C@@]67CCCN6C[C@H](F)C7)nc5c3F)N3C[C@H]5CC[C@@H]([C@H]3CCC4)N5Cc3oc(=O)oc3CCCCCCCC)c12 [Example 10]"
  category_label: "upper"
- compound: "C#Cc1c(F)ccc2cc(O)cc(-c3nc4c5c(nc(OC[C@@]67CCCN6C[C@H](F)C7)nc5c3F)N3C[C@H]5CC[C@@H]([C@H]3CCC4)N5Cc3oc(=O)oc3C(C)(C)C)c12 [Example 9]"
  category_label: "upper"
- compound: "C#Cc1c(F)ccc2cc(O)cc(-c3nc4c5c(nc(OC[C@@]67CCCN6C[C@H](F)C7)nc5c3F)N3C[C@H]5CC[C@H](N5)[C@@H]3[C@H]3CCC[C@@H]43)c12 [Example 42-P]"
  category_label: "lower"
- compound: "C#Cc1c(F)ccc2cc(OCc3oc(=O)oc3C)cc(-c3nc4c5c(nc(OC[C@@]67CCCN6C[C@H](F)C7)nc5c3F)N3C[C@H]5CC[C@@H]([C@@H]3[C@@H](C)C4)N5Cc3oc(=O)oc3C)c12 [Example 2]"
  category_label: "upper"
- compound: "C#Cc1c(F)ccc2cc(O)cc(-c3c(F)c4c5c(nc(OC[C@]6(C)CN(C)CC[C@@H]6C(F)F)nc5c3F)N3C[C@H]5CC[C@H](N5)[C@H]3CCC4)c12 (atropisomer, axis not shown; (aR)) [Example 78-P]"
  category_label: "lower"
- compound: "Cc1cc(N)nc(-c2c(Cl)c3c4c(nc(OC[C@@]56CCCN5C[C@H](F)C6)nc4c2F)N2C[C@H]4CC[C@@H]([C@H]2CC3)N4Cc2oc(=O)oc2C)c1C(F)(F)F (atropisomer, axis not shown; (aR)) [Example 3]"
  category_label: "middle"
- compound: "C#Cc1c(F)ccc2cc(N)cc(-c3nc4c5c(nc(OC[C@@]67CCCN6C[C@H](F)C7)nc5c3F)N3C[C@H]5CC[C@H](N5)[C@H]3CCC4)c12 [Example 69-P]"
  category_label: "lower"
- compound: "[2H]C([2H])([2H])N1CC[C@H](C(F)F)[C@](C)(C([2H])([2H])Oc2nc3c4c(nc(-c5cc(O)cc6ccc(F)c(C#C)c56)c(F)c4n2)CCC[C@@H]2[C@@H]4CC[C@H](CN32)N4)C1 [Example 75-P]"
  category_label: "lower"
- compound: "C#Cc1c(F)ccc2cc(O)cc(-c3nc4c5c(nc(OC[C@@]67CCCN6C[C@H](F)C7)nc5c3F)N3C[C@H]5CC[C@H](N5)[C@H]3CC[C@H]4C)c12 [Example 11-P]"
  category_label: "lower"
- compound: "C#Cc1c(F)ccc2cccc(-c3nc4c5c(nc(OC[C@@]67CCCN6C[C@H](F)C7)nc5c3F)N3C[C@H]5CC[C@@H]([C@H]3CCC4)N5Cc3oc(=O)oc3-c3ccccc3)c12 [Example 4]"
  category_label: "middle"
- compound: "C#Cc1c(F)ccc2cccc(-c3nc4c5c(nc(OC[C@@]67CCCN6C[C@H](F)C7)nc5c3F)N3C[C@H]5CC[C@@H]([C@H]3CCC4)N5Cc3c(C)oc(=O)n3C)c12 [Example 5]"
  category_label: "middle"
- compound: "C#Cc1c(F)ccc2cc(O)cc(-c3nc4c5c(nc(OC[C@@]67CCCN6C[C@H](F)C7)nc5c3F)N3C[C@H]5CC[C@@H]([C@H]3CC[C@H]4C)N5Cc3oc(=O)oc3C3CCCCC3)c12 [Example 17]"
  category_label: "upper"

Provenance of the data: patent US12448400B2
